assayed.system: T1, ectodomain of human TfR1 (His10-hTfR1; SEQ ID NO:110) (human, UniProt P02786 89-760)
T1 construct: also called ectodomain of hTfR1
T1 sequence (P02786 other isoform, or with tags, fused parts or gaps): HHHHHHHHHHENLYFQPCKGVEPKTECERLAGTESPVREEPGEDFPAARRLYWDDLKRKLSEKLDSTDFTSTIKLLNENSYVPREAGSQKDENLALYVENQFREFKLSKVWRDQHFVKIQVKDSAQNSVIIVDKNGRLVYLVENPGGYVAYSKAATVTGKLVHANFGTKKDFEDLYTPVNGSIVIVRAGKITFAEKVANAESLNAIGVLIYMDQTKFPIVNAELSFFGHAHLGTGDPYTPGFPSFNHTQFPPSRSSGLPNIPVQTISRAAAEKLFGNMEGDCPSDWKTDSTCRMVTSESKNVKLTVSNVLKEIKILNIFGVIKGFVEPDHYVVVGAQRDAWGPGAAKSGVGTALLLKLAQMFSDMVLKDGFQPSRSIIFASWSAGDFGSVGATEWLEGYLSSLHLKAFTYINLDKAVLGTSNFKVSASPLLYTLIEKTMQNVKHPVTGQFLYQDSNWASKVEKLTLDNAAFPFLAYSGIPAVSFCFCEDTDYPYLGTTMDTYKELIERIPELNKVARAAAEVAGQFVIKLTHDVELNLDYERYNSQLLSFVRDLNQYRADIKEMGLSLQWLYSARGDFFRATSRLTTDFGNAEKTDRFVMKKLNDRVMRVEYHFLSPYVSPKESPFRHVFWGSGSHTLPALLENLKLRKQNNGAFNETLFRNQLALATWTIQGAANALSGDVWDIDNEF
test: BLI: His-tagged Fab loaded from cell supernatant on anti-Fab sensors, hTfR1 ectodomain at 3.75 µg/ml in solution, 300 s association, 300 s dissociation
property.label: binding result

- h26D3 variant LC4 Fab (Fab, V domains shown, Single-mutant His-tagged Fab; also called W56A) VH: EVQLVQSGAEVKKPGSSVKVSCKASGYIFTDYNMDWVRQAPGQGLEWIGDINPDYDTTSYNEKFKGRATLTVDKSTSTAYMELSSLRSEDTAVYYCARGGYSGSSYYHPMDYWGQGTLVTVSS VL: DIQMTQSPSSVSASVGDRVTITCKSSQSLLYSTNQKNYLAWYQQKPGKAPKLLIYAASTRESGVPSRFSGSGSGTDFTLTISSLQPEDFATYYCQQYFIYPRTFGQGTKVEIK: binds
- h26D3 variant LC3 Fab (Fab, V domains shown, Single-mutant His-tagged Fab; also called Y55A) VH: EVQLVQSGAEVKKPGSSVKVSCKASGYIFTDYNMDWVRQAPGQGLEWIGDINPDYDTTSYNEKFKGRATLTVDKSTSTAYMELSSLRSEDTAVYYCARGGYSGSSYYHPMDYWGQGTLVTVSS VL: DIQMTQSPSSVSASVGDRVTITCKSSQSLLYSTNQKNYLAWYQQKPGKAPKLLIAWASTRESGVPSRFSGSGSGTDFTLTISSLQPEDFATYYCQQYFIYPRTFGQGTKVEIK: binds
- h26D3 variant HC9 Fab (Fab, V domains shown, Single-mutant His-tagged Fab; also called Y101A) VH: EVQLVQSGAEVKKPGSSVKVSCKASGYIFTDYNMDWVRQAPGQGLEWIGDINPDYDTTSYNEKFKGRATLTVDKSTSTAYMELSSLRSEDTAVYYCARGGASGSSYYHPMDYWGQGTLVTVSS VL: DIQMTQSPSSVSASVGDRVTITCKSSQSLLYSTNQKNYLAWYQQKPGKAPKLLIYWASTRESGVPSRFSGSGSGTDFTLTISSLQPEDFATYYCQQYFIYPRTFGQGTKVEIK: binds
